Biological target: Full-length glucokinase (beta cell isoform) (Homo sapiens, UniProt P35557)
Construct: Full-length glucokinase (beta cell isoform) was His-tagged at N-terminus; His tag (N); made in house
Sequence (P35557 whole entry, species assumed, canonical isoform): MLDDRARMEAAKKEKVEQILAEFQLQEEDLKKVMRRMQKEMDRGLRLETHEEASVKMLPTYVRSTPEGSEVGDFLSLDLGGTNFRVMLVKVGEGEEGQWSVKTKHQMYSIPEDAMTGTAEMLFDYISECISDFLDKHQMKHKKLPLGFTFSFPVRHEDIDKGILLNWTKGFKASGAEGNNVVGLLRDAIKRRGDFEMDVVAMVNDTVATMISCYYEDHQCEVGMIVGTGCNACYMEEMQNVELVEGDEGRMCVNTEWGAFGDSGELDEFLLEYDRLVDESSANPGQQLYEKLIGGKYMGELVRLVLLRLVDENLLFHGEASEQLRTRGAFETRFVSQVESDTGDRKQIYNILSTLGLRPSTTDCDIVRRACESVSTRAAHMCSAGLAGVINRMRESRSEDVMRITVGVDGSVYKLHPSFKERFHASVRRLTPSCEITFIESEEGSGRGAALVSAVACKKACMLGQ
Experiment: Glucokinase biochemical assay (PK/LDH-coupled, NADH depletion at 340 nm): % activation, EC50, % max activation
Settings: 5 mM glucose; GK activation; read-out: EC50
Method: Full-length glucokinase (beta cell isoform) was His-tagged at N-terminus and purified by a Ni column followed by size exclusion chromatography. Glucose was obtained from Calbiochem, and other reagents were from Sigma. […] Glucokinase was added to the buffer mixture to initiate the reaction in the presence and absence of compound. Reaction was monitored by absorbance at 340nm due to the depletion of NADH. The initial reaction velocity was measured by the slope of a linear time course of 200-900 sec. […]
pEC50: −log10 of the molar value.
quantityMeasured: pEC50

compound	targetOfAssay	pEC50
Cn1ccc(NC(=O)c2cc(Oc3ccc(S(C)(=O)=O)c(F)c3)c3c(c2)OC(C)(CO)C3)n1 (centres unmarked)	Full-length glucokinase (beta cell isoform) (Homo sapiens, UniProt P35557)	6.41

a: Cn1ncc(NC(=O)c2cc(Oc3ccc(S(=O)(=O)C4CC4)c(F)c3)c3c(c2)OC(C)(C)C3)n1
b: CCOc1ccc(NC(=O)c2cc(Oc3ccc(S(C)(=O)=O)cc3)c3cc(C)oc3c2)nc1
c: Cn1ccc(NC(=O)c2cc(Oc3ccc(S(C)(=O)=O)cc3)c3c(c2)OC(CF)C3)n1 (centres unmarked)
d: COCc1cc2c(Oc3ccc(S(C)(=O)=O)cc3)cc(C(=O)Nc3ccn(C)n3)cc2o1
# rank_down: sort by pEC50, max first Write the labels in rank order as requested.
a, d, c, b

1: Cc1cc2c(Oc3ccc(S(C)(=O)=O)cc3)cc(C(=O)Nc3ccc4c(n3)CCC4)cc2o1
2: Cc1ccc(NC(=O)c2cc(Oc3ccc(S(=O)(=O)N(C)C)c(F)c3)c3cc(C)oc3c2)nc1
# return whichever of 1 and 2 has the smaller pEC50 To answer, give the label that identifies your chosen option.
1
